B1: EEHEE_rd4_0003 (parent)
chain: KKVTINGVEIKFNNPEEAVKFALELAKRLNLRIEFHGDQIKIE

variants of: B1; assay: folding stability dG (cDNA display proteolysis); higher = more stable; conditions: PBS, room temperature
folding stability dG reference

Reference set (5 entries):
[[record]]
variant_key = "L23H"
meas_value = "1.95 kcal/mol"

[[record]]
variant_key = "E34G"
meas_value = "1.96 kcal/mol"

[[record]]
variant_key = "A26Y"
meas_value = "2.29 kcal/mol"

[[record]]
variant_key = "F12K"
meas_value = "1.09 kcal/mol"

[[record]]
variant_key = "K11R"
meas_value = "2.78 kcal/mol"


Data request: For the variant `T4Q` , report folding stability dG.
Data returned: 2.17 kcal/mol
